Reference source for all entries: the SangsterLogP compilation

# measurement-notes: method code SF-GLC, from DOI: 10.1016/0048-3575(87)90042-3
readout-kind: logP
Write no unit; give the number alone.

>  <structure-as-smiles>
CNC(N)=O

>  <logP>
-1.4

$$$$
>  <structure-as-smiles>
CCNC(=O)NC(C)=O

>  <logP>
-0.01

$$$$

Alright, here's another molecule for you.
Please look at this molecule and report its logP: CNC(=O)NC(C)=O -0.7
